- Assay text: Toxicity, intraperitoneal administration to mice
- Study conditions: mouse, in vivo, ip
Outcome measure: LD50

Given COC1Cc2c(cc3c(c2O)C(=O)c2c(O)cccc2C3=O)C(=O)C1(C)O (stereo not shown) [Antibiotic SM-173B] , state its recorded LD50.
> 200 mg/kg

Where do these numbers come from? They come from patent US4304861A.
